Target: stromelysin (MMP-3) (Homo sapiens, UniProt P08254)
Construct: enzymatic activity of the catalytic domains of human stromelysin and of neutrophil collagenase
Sequence (P08254 100-272 limits assumed): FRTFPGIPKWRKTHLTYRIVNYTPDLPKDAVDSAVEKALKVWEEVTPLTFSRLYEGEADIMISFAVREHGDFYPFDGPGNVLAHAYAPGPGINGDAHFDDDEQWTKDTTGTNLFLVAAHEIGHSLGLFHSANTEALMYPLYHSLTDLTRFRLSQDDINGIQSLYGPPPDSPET
Assay: Enzymatic activity of the catalytic domain of human stromelysin (fluorogenic substrate)
Details: pH=6.5, 15 min preincubation, fluorescence 328 nm (ex)/393 nm (em)
Measured Attribute: IC50
Numeric answer plus unit only.

So, `COC(=O)c1ccc(NC(=O)CC[C@H](NS(=O)(=O)c2ccc(-c3ccccc3)cc2)C(=O)O)cc1` ? Its IC50 was 5000 nM

Looking up `O=C(CC[C@H](NS(=O)(=O)c1ccc(-c2ccc(N3CCCC3)cc2)cc1)C(=O)O)Nc1ccccc1` , I found its IC50 recorded as 7 nM

Value of IC50 reported for the molecule O=C(O)C(Cc1cccnc1)NS(=O)(=O)c1ccc(-c2ccc(Cl)cc2)cc1 (racemic) is 100 nM

###

Would you mind telling me the reported pIC50 of each entry?
Molecular target: stromelysin (MMP-3) (Homo sapiens)
Construct: enzymatic activity of the catalytic domains of human stromelysin and of neutrophil collagenase
Assay: Enzymatic activity of the catalytic domain of human stromelysin (fluorogenic substrate)
Conditions: pH=6.5, 15 min preincubation, fluorescence 328 nm (ex)/393 nm (em)
Field pIC50 (float): negative decimal logarithm of the concentration in molar.

Measured pIC50 of `O=C(O)[C@@H](Cc1cccs1)NS(=O)(=O)c1ccc(-c2ccc(Cl)cc2)cc1` : 6.70

Sure, the documented pIC50 for `CP(=O)(O)CC[C@H](NS(=O)(=O)c1ccc(-c2ccc(Cl)cc2)cc1)C(=O)O` is 7.40

// sample `CN(C)c1ccc(-c2ccc(S(=O)(=O)N[C@@H](CCC(=O)Nc3ccccc3)C(=O)O)cc2)cc1` , its pIC50 was 8.00

Value of pIC50 reported for the compound `O=C(O)[C@@H](CO)NS(=O)(=O)c1ccc(-c2ccc(Cl)cc2)cc1` is 6.70

Entry `C[C@H](O)[C@H](NS(=O)(=O)c1ccc(Oc2ccccc2)cc1)C(=O)O` , pIC50 reported as 6.52

// pIC50 value for `O=C(CC[C@H](NS(=O)(=O)c1ccc(-c2ccccc2)cc1)C(=O)O)Nc1ccc([N+](=O)[O-])cc1` : 6.52

So for `CN(C)c1ccc(-c2ccc(S(=O)(=O)N[C@@H](CCC(=O)O)C(=O)O)cc2)cc1` , the logged pIC50 turned out to be 7.00

`O=C(O)[C@@H](Cc1ccccc1)NS(=O)(=O)c1ccc(-c2ccc(C(F)(F)F)cc2)cc1` yielded pIC50 of 6.40

GET /value?item= `O=C(O)[C@@H](Cc1csc2ccccc12)NS(=O)(=O)c1ccc(-c2ccc(Cl)cc2)cc1` &field=pIC50 returns 6.52

The recorded pIC50 for entry `O=C(O)[C@H](CCc1nc2ccccc2[nH]1)NS(=O)(=O)c1ccc(-c2ccccc2)cc1` equals 6.70

// field: pIC50; key: `O=C(c1ccccc1)c1ccc(C[C@@H](NS(=O)(=O)c2ccc(-c3ccc(Cl)cc3)cc2)C(=O)O)cc1` ; value = 6.00

###

Target: neutrophil collagenase (MMP-8) (Homo sapiens, UniProt P22894)
Construct: enzymatic activity of the catalytic domains of human stromelysin and of neutrophil collagenase
Sequence (P22894 100-262 limits assumed): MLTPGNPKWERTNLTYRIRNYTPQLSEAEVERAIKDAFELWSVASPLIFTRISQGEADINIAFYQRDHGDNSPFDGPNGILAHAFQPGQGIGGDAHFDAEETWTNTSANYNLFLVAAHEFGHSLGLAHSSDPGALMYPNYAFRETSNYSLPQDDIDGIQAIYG
Test: Enzymatic activity of the catalytic domain of neutrophil collagenase (fluorogenic substrate)
Conditions: pH=6.5, 15 min preincubation, fluorescence 328 nm (ex)/393 nm (em), read-out: Neutr. collagenase IC50
The label is Satisfied for IC50 below 0.01 µM and Not satisfied for IC50 equal to or exceeding 0.01 µM.

Is IC50 of `CC(=O)Nc1ccc(NC(=O)CC[C@H](NS(=O)(=O)c2ccc(-c3ccccc3)cc2)C(=O)O)cc1` strictly below 0.01 µM?
Not satisfied

Would you kindly verify if IC50 of `COc1ccc(NC(=O)CC[C@H](NS(=O)(=O)c2ccc(-c3ccccc3)cc2)C(=O)O)cc1` is strictly less than 0.01 µM?
Not satisfied

Hello, I'm reviewing records and need to know if IC50 of `CS(=O)(=O)CC[C@H](NS(=O)(=O)c1ccc(-c2ccc(Cl)cc2)cc1)C(=O)O` is below 0.01 µM. Could you check?
Not satisfied

For this molecule, is IC50 lower than 0.01 µM? `O=C(C[C@H](NS(=O)(=O)c1ccc(-c2ccc(Cl)cc2)cc1)C(=O)O)OCc1ccccc1`
Not satisfied

Please indicate whether the reported IC50 of COc1ccc(CC(NS(=O)(=O)c2ccc(-c3ccc(N(C)C)cc3)cc2)C(=O)O)cc1OC (racemic) is strictly below 0.01 µM.
Satisfied

State whether 0.01 µM exceeds IC50 recorded for `CN(C)c1ccc(-c2ccc(S(=O)(=O)N[C@@H](CCC(=O)O)C(=O)O)cc2)cc1` .
Satisfied

hey, is IC50 for `CC(C)C[C@H](NC(=O)CC[C@H](NS(=O)(=O)c1ccc(-c2ccccc2)cc1)C(=O)O)C(=O)O` lower than 0.01 µM or not?
Satisfied
